This document collects IC50 values reported for porcine pancreatic α-amylase (Sus scrofa).
Lab book: enter the figure in µM, no units written.

[in] Give me measured IC50, please, for this compound: O=c1cc(-c2ccc(O)c(O)c2)oc2cc(O)ccc12 [C6]
[out] 131

[in] Recall and state the measured IC50 for O=c1cc(-c2ccc(O)c(O)c2)oc2cccc(O)c12 [B4] .
[out] 148

* * *

Assignment: determine reported inhibition at 200 µM for the given molecules.
# assaySystem: porcine pancreatic α-amylase (Sus scrofa, UniProt P00690)
# Construct: α-Amylase from porcine pancreas; purchased Sigma-Aldrich Co. LLC (St. Louis, MO); host or cells: porcine pancreas (tissue-derived commercial preparation)
# Sequence (P00690 16-511): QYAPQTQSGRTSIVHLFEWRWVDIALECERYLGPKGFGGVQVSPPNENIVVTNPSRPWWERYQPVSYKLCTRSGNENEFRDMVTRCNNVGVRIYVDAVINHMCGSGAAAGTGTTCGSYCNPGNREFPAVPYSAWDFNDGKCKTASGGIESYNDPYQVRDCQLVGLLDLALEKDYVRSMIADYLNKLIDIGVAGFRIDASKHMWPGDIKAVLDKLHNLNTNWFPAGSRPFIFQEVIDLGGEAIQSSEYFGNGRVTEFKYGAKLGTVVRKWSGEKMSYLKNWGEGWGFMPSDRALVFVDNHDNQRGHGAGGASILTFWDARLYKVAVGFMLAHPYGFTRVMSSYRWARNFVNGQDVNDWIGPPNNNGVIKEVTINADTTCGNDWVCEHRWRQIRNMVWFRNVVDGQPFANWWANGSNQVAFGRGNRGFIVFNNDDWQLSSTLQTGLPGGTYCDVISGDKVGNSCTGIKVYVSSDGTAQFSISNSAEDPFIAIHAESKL
# measurementDescription: In vitro pancreatic α-amylase inhibition assay (CNPG3 substrate, 405 nm);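 also: enzyme rate taken from the absorbance slope between 5 and 30 min of CNPG3 hydrolysis, inhibition derived from these rates, at least three independent experiments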
# Assay type: biochemical
# experimentalSetup: 200 µM; mean ± SEM; read-out: Inhibition (%) at the highest tested concentration

[in] Provide measured inhibition at 200 µM value, entry: O=c1cc(-c2ccc(O)cc2)oc2cccc(O)c12
[out] < 20%

[in] Fill in inhibition at 200 µM for record COc1cccc(-c2oc3cc(OC)ccc3c(=O)c2O)c1
[out] < 20%

[in] Tell me measured inhibition at 200 µM for O=c1cc(-c2ccc(O)c(O)c2)oc2ccccc12 please.
[out] 46%

[in] Name the recorded inhibition at 200 µM of the item O=c1c(O)c(-c2cccc(O)c2)oc2cc(O)ccc12 in your answer.
[out] 34%

[in] Identify measured inhibition at 200 µM associated with COc1ccc(-c2cc(=O)c3c(O)cc(O)cc3o2)cc1OC
[out] 33%

[in] Give the reported inhibition at 200 µM for this molecule. COc1ccc(-c2oc3ccccc3c(=O)c2O)cc1OC
[out] < 20%

[in] Using the record for O=c1c(O)c(-c2ccccc2)oc2cc(O)cc(O)c12 [D2, Galangin] , state its measured inhibition at 200 µM.
[out] < 20%

[in] Quickly give me recorded inhibition at 200 µM for O=c1cc(-c2ccccc2)oc2cc(O)cc(O)c12 [D1, Chrysin]
[out] 22%

[in] Specify inhibition at 200 µM for O=c1cc(-c2cccc(O)c2)oc2ccccc12 and stop.
[out] < 20%

[in] Let me know recorded inhibition at 200 µM for O=C1c2c(O)cc(O)cc2OC(c2ccc(O)c(O)c2)C1O (stereo not shown) , thanks.
[out] < 20%

[in] Check the records and state inhibition at 200 µM for O=c1cc(-c2ccccc2)oc2cccc(O)c12
[out] < 2%

[in] Look up and state reported inhibition at 200 µM for O=c1cc(-c2ccc(O)cc2)oc2ccccc12
[out] < 20%

[in] Give reported inhibition at 200 µM value for O=c1cc(-c2cccc(O)c2)oc2cc(O)ccc12
[out] 28%

[in] Specify reported inhibition at 200 µM for the molecule shown: O=c1cc(-c2cccc(O)c2)oc2cccc(O)c12
[out] < 20%

[in] For the molecule O=c1cc(-c2ccc(O)cc2)oc2cc(O)ccc12 , give its measured inhibition at 200 µM value.
[out] 36%

[in] // Input: O=C1C[C@@H](c2ccc(O)c(O)c2)Oc2cc(O)cc(O)c21 [E2, Eriodictyol] . Output its inhibition at 200 µM only.
[out] < 20%
